Here the recorded Bias factor (CL95%) is given for each entry.
System: mu receptor
Test: Bias factor, mu-G protein vs mu-β-arrestin 2 (BRET), EM-2 as standard ligand
Settings: log10 units, towards G protein
Non-standard residues stand in square brackets, D forms with d. Residues, ends and D or L forms follow the SMILES beside them. Dmt = Cc1cc(O)cc(C)c1C[C@H](N)C(=O)O; d(β3hA) = C[C@@H](N)CC(=O)O

{"compound": "Cc1cc(O)cc(C)c1C[C@H](N)C(=O)N[C@H](C)CC(=O)N[C@@H](Cc1ccccc1)C(=O)N[C@@H](Cc1ccccc1)C(N)=O [analog 9, Dmt-(R)-β ^ 3 -Ala-Phe-Phe-NH2] (H-[Dmt][d(β3hA)]FF-NH2; N-terminus assumed)", "targetOrSystem": "mu receptor", "Bias factor (CL95%)": "0.27 (0.16–0.38)"}
{"compound": "Cc1cc(O)cc(C)c1C[C@H](N)C(=O)N1CCC[C@H]1C(=O)N[C@@H](Cc1ccccc1)C(=O)N[C@@H](Cc1ccccc1)C(N)=O", "targetOrSystem": "mu receptor", "Bias factor (CL95%)": "0.48 (0.34–0.62)"}
{"compound": "NC(=O)[C@H](Cc1ccccc1)NC(=O)[C@H](Cc1ccccc1)NC(=O)[C@@H]1CCCN(C(=O)[C@@H](N)Cc2ccc(O)cc2)C1 [analog 4, Tyr-(R)-Nip-Phe-Phe-NH2]", "targetOrSystem": "mu receptor", "Bias factor (CL95%)": "−0.02 (−0.04-0.00)"}
{"compound": "Cc1cc(O)cc(C)c1C[C@H](N)C(=O)N1CCC[C@@H](C(=O)N[C@@H](Cc2ccccc2)C(=O)N[C@@H](Cc2ccccc2)C(N)=O)C1 [analog 5, Dmt-(R)-Nip-Phe-Phe-NH2]", "targetOrSystem": "mu receptor", "Bias factor (CL95%)": "−0.08 (−0.25-0.10)"}
{"compound": "NC(=O)[C@H](Cc1ccccc1)NC(=O)C[C@@H](Cc1cccc2ccccc12)NC(=O)[C@@H]1CCCN1C(=O)[C@@H](N)Cc1ccc(O)cc1 [analog 12, Tyr-Pro-(R)-β ^ 3 -1-Nal-Phe-NH2]", "targetOrSystem": "mu receptor", "Bias factor (CL95%)": "0.23 (0.06–0.41)"}

* * *

Here the recorded logD is given for each entry.
Assay: n-Octanol/water partition coefficient (log P)
Format: physicochemical
Settings: n-octanol / 0.05 M HEPES buffer in 0.1 M NaCl, pH 7.4

{"compound": "Cc1cc(O)cc(C)c1C[C@H](N)C(=O)N1CCC[C@@H](C(=O)N[C@@H](Cc2ccccc2)C(=O)N[C@@H](Cc2ccccc2)C(N)=O)C1 [analog 5, Dmt-(R)-Nip-Phe-Phe-NH2]", "logD": 1.8}
{"compound": "Cc1cc(O)cc(C)c1C[C@H](N)C(=O)N1CCC[C@H]1C(=O)N[C@@H](Cc1ccccc1)C(=O)N[C@@H](Cc1ccccc1)C(N)=O", "logD": 2.16}
{"compound": "Cc1cc(O)cc(C)c1C[C@H](N)C(=O)N1CCC[C@H]1C(=O)NC[C@@H](Cc1cccc2ccccc12)C(=O)N[C@@H](Cc1ccccc1)C(N)=O [analog 11, Dmt-Pro-(R)-β ^ 2 -1-Nal-Phe-NH2]", "logD": 2.71}
{"compound": "NC(=O)[C@H](Cc1ccccc1)NC(=O)[C@H](Cc1ccccc1)NC(=O)[C@@H]1CCCN(C(=O)[C@@H](N)Cc2ccc(O)cc2)C1 [analog 4, Tyr-(R)-Nip-Phe-Phe-NH2]", "logD": 1.68}
